Test system: Phospho-eIF2α (Ser51)
Assay procedure: Phospho-eIF2α (Ser51) Sandwich ELISA in K562 cells
Assay type: cell-based
Condition: Homo sapiens, K562, 6 h, serum-free RPMI, 10 μM compound, control = 1, read-out: eIF2α phosphorylation, absorbance standardized to control (DMSO-treated) set to 1, at 10 μM
Consider the following compounds and their measured activity at 10 µM readings.
Test readout: activity at 10 µM (%)

In [3]: df
Out[3]:
                           molecular_string  value
0  N#Cc1ccc(O[C@H]2CC[C@H](Nc3c(Nc4ccc(Cl)cc4)c(=O)c3=O)CC2)cc1     87
1  O=c1c(Nc2ccccc2)c(N[C@H]2CC[C@H](Oc3ccc([N+](=O)[O-])cc3)CC2)c1=O     84
2  COC(=O)c1ccc(Nc2c(N[C@H]3CC[C@H](Oc4ccc([N+](=O)[O-])cc4)CC3)c(=O)c2=O)cc1     97
3  COc1ccccc1Nc1c(N[C@H]2CC[C@H](Oc3ccc(S(N)(=O)=O)cc3)CC2)c(=O)c1=O    136
4  COc1ccc(Nc2c(N[C@H]3CC[C@H](Oc4ccc(C(F)(F)F)cc4)CC3)c(=O)c2=O)cc1    182
5  N#Cc1ccc(O[C@H]2CC[C@H](Nc3c(Nc4ccccc4C(F)(F)F)c(=O)c3=O)CC2)cc1    180
6  CC(C)(C)c1ccccc1Nc1c(N[C@H]2CC[C@H](Oc3ccc(C#N)cc3)CC2)c(=O)c1=O    162
7  COc1cccc(Nc2c(N[C@H]3CC[C@H](Oc4ccc(S(N)(=O)=O)cc4)CC3)c(=O)c2=O)c1     67
8  COc1ccc(Nc2c(N[C@H]3CC[C@H](Oc4ccc(C#N)cc4)CC3)c(=O)c2=O)cc1     84
9  NS(=O)(=O)c1ccc(O[C@H]2CC[C@H](Nc3c(Nc4ccccc4)c(=O)c3=O)CC2)cc1     81

* * *

Tested on: Phospho-eIF2α (Ser51)
Assay procedure: Phospho-eIF2α (Ser51) Sandwich ELISA in K562 cells
Format: cell-based
Condition: Homo sapiens, K562, 6 h, serum-free RPMI, 10 μM compound, control = 1, read-out: eIF2α phosphorylation, absorbance standardized to control (DMSO-treated) set to 1, at 10 μM
Overview of recorded activity at 10 µM for various compounds
Test readout: activity at 10 µM (%)

                           molecular_string  unit_symbol  value
0  O=c1c(Nc2ccccc2Cl)c(N[C@H]2CC[C@H](Oc3ccc(C(F)(F)F)cc3)CC2)c1=O            %    159
1  N#Cc1ccc(O[C@H]2CC[C@H](Nc3c(Nc4cccc(Cl)c4)c(=O)c3=O)CC2)cc1            %    111
2  O=c1c(Nc2cccc(F)c2)c(N[C@H]2CC[C@H](Oc3ccc([N+](=O)[O-])cc3)CC2)c1=O            %     81
3  CS(=O)(=O)c1ccc(O[C@H]2CC[C@H](Nc3c(Nc4cccc(C(F)(F)F)c4)c(=O)c3=O)CC2)cc1            %    133
4  CC(C)(C)c1cccc(Nc2c(N[C@H]3CC[C@H](Oc4ccc(C#N)cc4)CC3)c(=O)c2=O)c1            %    176
5  O=c1c(Nc2ccc(Cl)cc2)c(N[C@H]2CC[C@H](Oc3ccc(C(F)(F)F)cc3)CC2)c1=O            %     93
6  CC(C)(C)c1ccc(Nc2c(N[C@H]3CC[C@H](Oc4ccc([N+](=O)[O-])cc4)CC3)c(=O)c2=O)cc1            %     77
7  N#Cc1ccc(O[C@H]2CC[C@H](Nc3c(Nc4cccc(C(F)(F)F)c4)c(=O)c3=O)CC2)cc1            %    195
8  COC(=O)c1ccc(Nc2c(N[C@H]3CC[C@H](Oc4ccc(C#N)cc4)CC3)c(=O)c2=O)cc1            %     83
